# EXPERIMENTAL SYSTEM: UniProt Q9H2X9
# ASSAY DETAILS: concentration-response of KCC2 transport modulators – cell-based, HEK293 KCC2, FluoZin-2 fluorescence, dose response (AID 1736)
pEC50: −log10 of the molar value.
ENDPOINT NAME: pEC50

O=C(CSc1nnc(CNc2ccccc2)o1)N1CCCc2ccccc21    4.46
O=[N+]([O-])c1ccccc1C=C[CH+][N-]n1c(-c2ccc(Cl)cc2)n[nH]c1=S    4.85
Cc1nn(-c2ccc(F)cc2)c(C)c1NS(=O)(=O)c1ccc2ccccc2c1    5.70
CCC(c1nnc(SCc2nc3ccccc3s2)n1Cc1ccccc1)N(C)C (stereo not given)    5.18
Oc1ccccc1CN=Nc1nc2ccccc2o1    2.52
Cc1noc(/C=C/c2ccco2)c1S(=O)(=O)N1CCC(C(=O)N2CCc3ccccc3C2)CC1    5.27
CCOc1ccc2nc(Sc3cc(O)n(-c4cccc(OC)c4)c3O)sc2c1    5.03
O=C(O)CC/C(=C\c1ccc(N2CCOCC2)c([N+](=O)[O-])c1)c1nc2ccccc2s1    1.09
O=C(NCc1ccc2c(c1)OCO2)c1ccc(COc2cc(Cl)ccc2Cl)o1    5.19
CC(C)NC(=S)NNC1=c2cc(C(C)C)ccc2=NC1=O    3.84
Cc1nn(C)c(C)c1C=C1SC(S)=NC1=O    5.82
O=C(Cn1cnc2c(nnn2-c2ccccc2)c1=O)NCCc1ccccc1    5.93
O=C(Nc1ccc2oc(-c3ccccc3)nc2c1)c1ccncc1    5.49
N#CC(C(=O)c1cccc(F)c1)c1nc2ccccc2s1 (stereo not given)    5.02
O=C(c1ccc(N2CCCCCC2)c([N+](=O)[O-])c1)N1CCc2ccccc21    6.25
Cc1noc(C)c1S(=O)(=O)N1CCC(C(=O)N2CCN(c3ccc(F)cc3)CC2)CC1    5.12
CC(C)(CN=C(S)NCCc1ccccc1)CN=C(S)NCCc1ccccc1    6.03
COc1cc(C(=S)N2CCOCC2)ccc1OC(=O)Cc1ccc(F)cc1    3.86
Cc1ccc2oc(-c3ccc(C)c(NC(=S)NC(=O)c4cccs4)c3)nc2c1    6.70
O=C(C1CCN(c2nnc(-n3cccc3)s2)CC1)N1CCc2ccccc2C1    4.97

* * *

# EXPERIMENTAL SYSTEM: Solute carrier family 12 member 5 (Homo sapiens, UniProt Q9H2X9)
# Sequence (Q9H2X9 whole entry): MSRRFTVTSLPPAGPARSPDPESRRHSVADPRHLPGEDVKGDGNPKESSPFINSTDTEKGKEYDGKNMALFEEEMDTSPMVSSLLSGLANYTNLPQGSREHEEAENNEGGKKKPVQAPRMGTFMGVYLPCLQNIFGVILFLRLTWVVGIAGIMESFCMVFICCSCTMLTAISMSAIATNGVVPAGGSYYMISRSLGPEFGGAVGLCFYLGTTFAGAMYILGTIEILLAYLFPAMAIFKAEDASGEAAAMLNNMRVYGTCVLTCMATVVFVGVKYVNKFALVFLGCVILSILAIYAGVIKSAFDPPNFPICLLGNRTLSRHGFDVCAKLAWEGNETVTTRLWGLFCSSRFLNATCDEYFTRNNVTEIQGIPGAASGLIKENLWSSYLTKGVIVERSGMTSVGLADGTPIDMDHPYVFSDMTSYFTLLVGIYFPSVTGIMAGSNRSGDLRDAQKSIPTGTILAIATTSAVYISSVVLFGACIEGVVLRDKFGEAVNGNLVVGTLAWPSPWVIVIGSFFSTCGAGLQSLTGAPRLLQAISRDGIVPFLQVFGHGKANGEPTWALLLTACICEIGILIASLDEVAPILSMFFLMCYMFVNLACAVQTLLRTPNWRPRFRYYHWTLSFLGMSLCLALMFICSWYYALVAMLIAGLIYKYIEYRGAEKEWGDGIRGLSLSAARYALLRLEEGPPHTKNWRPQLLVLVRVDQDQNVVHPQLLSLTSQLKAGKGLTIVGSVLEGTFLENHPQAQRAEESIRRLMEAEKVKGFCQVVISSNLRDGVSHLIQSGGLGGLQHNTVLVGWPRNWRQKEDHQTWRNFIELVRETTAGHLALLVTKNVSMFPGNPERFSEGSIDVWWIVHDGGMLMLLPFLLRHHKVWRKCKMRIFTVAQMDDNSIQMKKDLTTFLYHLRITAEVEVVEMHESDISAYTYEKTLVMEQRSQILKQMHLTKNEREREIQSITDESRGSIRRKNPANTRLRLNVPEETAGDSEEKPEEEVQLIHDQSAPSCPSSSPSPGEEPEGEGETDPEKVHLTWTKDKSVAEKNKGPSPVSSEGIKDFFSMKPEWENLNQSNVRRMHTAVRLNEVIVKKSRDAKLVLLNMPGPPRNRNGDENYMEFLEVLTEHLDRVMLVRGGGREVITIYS
# ASSAY DETAILS: concentration-response of KCC2 transport modulators – cell-based, HEK293 KCC2, FluoZin-2 fluorescence, dose response (AID 1736)
# MEASUREMENT CONTEXT: inactive by the depositor's call
pEC50: −log10 of the molar value.
ENDPOINT NAME: pEC50

CCCCC(c1nnnn1Cc1ccco1)N1CCN(c2nc3ccccc3s2)CC1 (stereo unspecified)    5.04
Cc1ccc(C=Nn2c(-c3ccc(Cl)cc3)n[nH]c2=S)s1    3.73
CCOc1ccc(Nc2nnc(S)s2)cc1    7.33
COc1ccc(/C=C2\CCc3ccccc3C2=O)cc1CN1CCOCC1    3.66
CC(=O)Nc1ccc(S(=O)(=O)N2CCN(C(C)CCc3ccccc3)CC2)cc1 (stereo unspecified)    4.17
CC(C)c1onc(C(=O)NCCc2ccccc2)c1[N+](=O)[O-]    4.69

* * *

# EXPERIMENTAL SYSTEM: Solute carrier family 12 member 5 (Homo sapiens, UniProt Q9H2X9)
# ASSAY DETAILS: concentration-response of KCC2 transport modulators – cell-based, HEK293 KCC2, FluoZin-2 fluorescence, dose response (AID 1736)
Known EC50 of a selection of compounds
ENDPOINT NAME: EC50 (µM)

O=C(C1CCN(S(=O)(=O)c2cccc3nsnc23)CC1)N1CCc2ccccc2C1    34.1
CCN(CC)S(=O)(=O)c1ccc(NC(=O)CSc2ncnc3ccccc23)cc1 [MLS000393282]    5.08
O=S(=O)(NCc1ccccc1)c1ccc(Cl)c(S(=O)(=O)NCc2ccccc2)c1    2.11
Cc1[nH]c2ccccc2c1SCC(=O)N1CCN(c2ccccc2)CC1    86.4
O=C(OC1CCc2ccccc2C1=O)c1ccccc1O (stereo not given) [MLS000051417]    0.53
CC(C)N1C(=O)S/C(=C/c2ccccc2OCc2ccc(C(=O)O)cc2)C1=O    218
CC1Cc2ccccc2N1C(=O)CSc1nnc(CNc2ccccc2)o1 (stereo not given)    18.5
CCN(CC)c1ccc2c(C)c(-c3ccc(N)cc3)c(=O)oc2c1    1.08
CC1Cc2ccccc2N1C(=O)CSc1nnnn1Cc1ccccc1 (stereo not given)    1.91
N#Cc1nc(Cc2cccc3ccccc23)oc1N1CCOCC1    1.77

* * *

# EXPERIMENTAL SYSTEM: Solute carrier family 12 member 5 (Homo sapiens)
# ASSAY DETAILS: concentration-response of KCC2 transport modulators – cell-based, HEK293 KCC2, FluoZin-2 fluorescence, dose response (AID 1736)
pEC50: −log10 of the molar value.
Known pEC50 of a selection of compounds
ENDPOINT NAME: pEC50

Cc1ccc(C(=O)CC=Nc2ccccc2C(N)=O)cc1    5.10
COc1ccc(-c2cc(CNC(=O)CN(C)Cc3ccccc3)on2)cc1    4.82
O=C(O)CCn1c(SCc2cccc3ccccc23)nc2ccccc21    6.21
C=CCn1c(Cc2cccs2)nnc1SCC(=O)c1ccc2ccccc2c1    5.30
CCOc1ccc(C(CC(=O)O)NC(=O)C(Sc2ccccc2)c2ccccc2)cc1 (stereo not drawn)    4.87
N#CC(C(=O)COc1ccccc1)c1nc2ccccc2s1 (stereo not drawn)    5.18
CC1Cc2ccccc2N1C(=O)CN(C)S(=O)(=O)c1cccc2cccnc12 (stereo not drawn)    4.71
CC1CCN(C(=O)CSc2ccc(-c3ccc(F)cc3)nn2)CC1    5.51
Cc1ccc(S(=O)(=O)N2CCC(=O)N(C(COCc3ccccc3)Cc3ccccc3)CC2)cc1 (stereo not drawn)    5.93
COCCNS(=O)(=O)c1ccc(-c2ccc(Cl)cc2)cc1    5.11
O=C(COC(=O)c1cc([N+](=O)[O-])ccc1NCc1ccccc1)NC1CCCCC1    5.34
CCOc1cc(S(=O)(=O)NCc2ccccc2)ccc1F    5.33
O=C(CSc1nnc(-c2c[nH]c3ccccc23)o1)N1CCCCC1    5.42
CN1C(=O)/C(=C/c2ccccc2OCc2ccccc2)NC1=S    5.12
O=C1Nc2ccc([N+](=O)[O-])cc2OC1CCN1CCN(Cc2ccccc2)CC1 (stereo not drawn)    4.82
CCOC(=O)c1c(C)[nH]c(N=Nc2ccccc2)c1C    5.18
COc1cc(C(=S)N2CCOCC2)cc(OC)c1OC(=O)Cc1ccc(F)cc1    5.40
O=C(O)CCc1cc(I)c(Oc2ccc(O)c(I)c2)c(I)c1    4.95
Sc1nnc(Nc2ccccc2)s1    5.60
O=C(CN1C(=O)NC2(CCCC2)C1=O)Nc1nc(-c2ccc(F)cc2)cs1    6.64
CCCCNc1cc(C(=O)O)cc(S(N)(=O)=O)c1Oc1ccccc1    8.97
Cc1ccc(NC(=O)CCCSc2ccccc2)cc1S(=O)(=O)N1CCOCC1    3.39
Cn1cc(C(=O)C(=O)N2CCCc3ccccc32)c2ccccc21    5.43
O=C(NCc1nc(-c2ccccc2)cs1)c1ccccc1    5.12
COc1ccc(S(=O)(=O)N(CCc2ccccc2)CC(=O)O)cc1Cl    5.42
O=c1[nH]c2ccc(S(=O)(=O)N3CCN(c4ccccc4F)CC3)cc2s1    5.09
O=C(NCc1cccnc1)c1ccc(COc2ccccc2Br)o1    5.04
O=C(NCCc1cn2ccccc2n1)c1cc(COc2c(F)cccc2F)on1    5.12
O=C(NCCCCc1ccccc1)C1CC(c2ccccc2[N+](=O)[O-])=NO1 (stereo not drawn)    5.06
O=C(CSc1ccccc1C(=O)NCc1ccccc1)NC12CC3CC(CC(C3)C1)C2    5.28
Cc1ccc2c(c1)nnn2C1CCN(S(=O)(=O)c2cccc(S(=O)(=O)N(C)C)c2)CC1    5.39
COC(=O)c1sccc1NC(=S)OC    5.40
O=C(CSc1ccc(-c2ccccc2)nn1)N1CCCc2ccccc21    4.98
Cc1cc(C(=O)COC(=O)CCc2nc3ccccc3s2)c(C)n1C    4.80
O=C(NC(=S)Nc1nc(-c2cccc([N+](=O)[O-])c2)cs1)c1ccccc1Cl    5.17
c1ccc(-c2csc(N=NCc3ccco3)n2)cc1    4.19
CS/C(=N\Cc1ccc(F)cc1)NS(=O)(=O)c1cccs1    6.05
CS(=O)(=O)N(CC(=O)N1CCN(c2ccccc2)CC1)c1cccc(Br)c1    5.61
O=C(C1CCN(S(=O)(=O)c2cccs2)CC1)N1CCc2ccccc2C1    5.38
Sc1nnc(CCc2ccc(Cl)cc2)o1    5.61
O=C(CSc1ccc(-c2ccccc2)nn1)Nc1ccc2c(c1)OCCO2    4.51
N#Cc1nc(-c2ccco2)oc1N1CCN(Cc2ccccc2)CC1    5.34
CC(=O)NCCC(=O)N1CCCC(CNC(=O)c2ccc(-c3ccccc3)cc2)C1 (stereo not drawn)    5.09
